target: Sodium channel protein type 5 subunit alpha (Homo sapiens); experiment: Binding affinity to inactivated state of human NaV1.5 channel by whole-cell patch clamp assay; conditions: read-out: K
Sequence (Q14524 whole entry): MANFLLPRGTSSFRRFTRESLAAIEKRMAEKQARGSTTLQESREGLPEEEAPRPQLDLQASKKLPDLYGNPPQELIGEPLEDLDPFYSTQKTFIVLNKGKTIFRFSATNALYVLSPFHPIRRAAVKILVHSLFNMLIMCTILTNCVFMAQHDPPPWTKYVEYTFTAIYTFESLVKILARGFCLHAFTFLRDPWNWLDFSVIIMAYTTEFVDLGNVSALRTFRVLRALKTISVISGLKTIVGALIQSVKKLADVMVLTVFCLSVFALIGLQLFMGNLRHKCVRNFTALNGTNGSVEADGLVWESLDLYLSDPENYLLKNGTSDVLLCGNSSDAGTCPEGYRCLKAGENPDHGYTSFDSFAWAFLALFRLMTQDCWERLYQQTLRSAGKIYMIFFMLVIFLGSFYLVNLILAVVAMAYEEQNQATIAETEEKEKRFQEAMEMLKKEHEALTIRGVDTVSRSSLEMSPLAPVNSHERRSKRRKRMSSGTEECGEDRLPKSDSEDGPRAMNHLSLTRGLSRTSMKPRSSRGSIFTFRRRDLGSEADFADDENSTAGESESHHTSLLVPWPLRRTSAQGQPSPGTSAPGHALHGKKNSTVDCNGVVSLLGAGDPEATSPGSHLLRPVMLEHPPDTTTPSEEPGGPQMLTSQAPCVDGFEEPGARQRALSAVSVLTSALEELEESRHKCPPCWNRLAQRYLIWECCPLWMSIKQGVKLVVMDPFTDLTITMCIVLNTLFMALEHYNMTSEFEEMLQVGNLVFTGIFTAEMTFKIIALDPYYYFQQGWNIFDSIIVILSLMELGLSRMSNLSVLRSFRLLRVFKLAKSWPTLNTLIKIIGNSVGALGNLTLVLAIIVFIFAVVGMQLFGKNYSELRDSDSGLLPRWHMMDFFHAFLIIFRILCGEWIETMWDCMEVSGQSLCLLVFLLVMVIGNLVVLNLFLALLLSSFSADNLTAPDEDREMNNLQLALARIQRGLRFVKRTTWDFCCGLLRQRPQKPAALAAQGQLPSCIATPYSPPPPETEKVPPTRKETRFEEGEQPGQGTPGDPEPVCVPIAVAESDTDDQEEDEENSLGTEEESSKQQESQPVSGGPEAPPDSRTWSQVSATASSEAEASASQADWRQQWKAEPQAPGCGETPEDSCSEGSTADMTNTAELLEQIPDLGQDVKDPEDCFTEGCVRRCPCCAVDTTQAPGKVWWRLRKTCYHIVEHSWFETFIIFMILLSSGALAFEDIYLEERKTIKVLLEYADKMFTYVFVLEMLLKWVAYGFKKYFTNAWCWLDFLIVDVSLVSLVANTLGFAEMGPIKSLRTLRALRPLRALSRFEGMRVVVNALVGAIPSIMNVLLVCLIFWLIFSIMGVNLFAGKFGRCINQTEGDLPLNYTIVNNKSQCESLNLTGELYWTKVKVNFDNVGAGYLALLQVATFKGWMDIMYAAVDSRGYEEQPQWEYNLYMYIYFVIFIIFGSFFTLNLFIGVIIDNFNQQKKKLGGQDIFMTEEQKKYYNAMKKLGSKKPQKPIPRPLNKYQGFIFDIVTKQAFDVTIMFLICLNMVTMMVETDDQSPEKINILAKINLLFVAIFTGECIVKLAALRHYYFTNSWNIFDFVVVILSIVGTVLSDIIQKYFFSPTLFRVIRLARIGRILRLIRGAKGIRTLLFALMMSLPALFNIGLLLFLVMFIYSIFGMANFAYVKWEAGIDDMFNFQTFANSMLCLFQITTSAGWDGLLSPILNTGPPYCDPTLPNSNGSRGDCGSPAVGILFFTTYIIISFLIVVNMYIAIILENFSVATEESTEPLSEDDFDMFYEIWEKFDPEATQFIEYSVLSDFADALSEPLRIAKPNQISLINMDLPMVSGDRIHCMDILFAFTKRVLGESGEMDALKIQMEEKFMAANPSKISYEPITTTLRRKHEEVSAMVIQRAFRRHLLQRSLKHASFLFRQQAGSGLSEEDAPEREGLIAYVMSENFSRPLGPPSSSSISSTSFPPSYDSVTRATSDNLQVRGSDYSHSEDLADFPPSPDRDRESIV
PROPERTY_NAME: Kd
Answer format: value, then unit.

Please look up its Kd: O=C(N[C@H](Cc1ccccc1F)C(=O)N[C@@H]1CCc2c(F)c(F)cc(F)c2N(C2CC2)C1=O)C1CC1C(F)(F)F (stereo partly specified)
2.38 µM

---

Examples of compounds with documented clearance follow.
test: Plasma clearance in Sprague-Dawley rat at 3 mg/kg, po and 1 mg/kg, iv; assay type: ADME, organism-based
Answer format: value, then unit.

Worked cases, clearance given:
CC(C)N1C(=O)[C@H](NC(=O)[C@@H](Cc2ccccc2F)NC(=O)c2ccc(F)cc2C(F)(F)F)CCc2cc(F)ccc21 = 36 mL/min/kg
CC(C)N1C(=O)[C@H](NC(=O)[C@@H](Cc2ccccc2F)NC(=O)c2ccc(F)cc2C(F)(F)F)CCc2cc(C(F)(F)F)ccc21 = 33 mL/min/kg
O=C(N[C@H](Cc1ccccc1F)C(=O)N[C@@H]1CCc2c(F)c(F)cc(F)c2N(C2CC2)C1=O)C1CC1C(F)(F)F (some centres undefined) = 43 mL/min/kg
CC(C)N1C(=O)[C@H](NC(=O)[C@@H](Cc2ccccc2F)NC(=O)C2CC2C(F)(F)F)CCc2c(F)c(F)cc(F)c21 (some centres undefined) = 23 mL/min/kg
CC(C)N1C(=O)[C@H](NC(=O)[C@@H](Cc2ccccc2F)NC(=O)c2ccc(F)cc2C(F)(F)F)CCc2cc(Cl)cc(F)c21 = 21 mL/min/kg

Please look up its clearance: CC(C)N1C(=O)[C@H](NC(=O)[C@@H](Cc2ccccc2OC(F)(F)F)NC(=O)OC(C)(C)C)CCc2cc(F)ccc21
16 mL/min/kg

Now try CC(C)N1C(=O)[C@H](NC(=O)[C@@H](Cc2ccccc2OC(F)(F)F)NC(=O)OC(C)(C)C)CCc2ccc(F)cc21 .
29 mL/min/kg

Now try CC(C)N1C(=O)[C@H](NC(=O)[C@@H](Cc2ccccc2OC(F)(F)F)NC(=O)OC(C)(C)C)CCc2cccc(F)c21 .
21 mL/min/kg

Now try CC(C)N1C(=O)[C@H](NC(=O)[C@@H](Cc2ccccc2OC(F)(F)F)NC(=O)OC(C)(C)C)CCc2ccc(C(F)(F)F)cc21 .
26 mL/min/kg

Now try CC(C)N1C(=O)[C@H](NC(=O)[C@@H](Cc2ccccc2F)NC(=O)c2ccc(F)cc2C(F)(F)F)CCc2c(F)c(F)cc(F)c21 .
19 mL/min/kg

Now try CC(C)N1C(=O)[C@H](NC(=O)[C@@H](Cc2ccccc2F)NC(=O)c2ccc(F)cc2C(F)(F)F)CCc2cc(F)cc(F)c21 .
21 mL/min/kg

Now try CC(C)N1C(=O)[C@H](NC(=O)[C@@H](Cc2ccccc2OC(F)(F)F)NC(=O)OC(C)(C)C)CCc2cc(C(F)(F)F)ccc21 .
39 mL/min/kg

Now try CC(C)N1C(=O)[C@H](NC(=O)[C@@H](Cc2ccccc2OC(F)(F)F)NC(=O)OC(C)(C)C)CCc2cc(F)cc(F)c21 .
17 mL/min/kg

Now try CC1CC1C(=O)N[C@H](Cc1ccccc1F)C(=O)N[C@@H]1CCc2c(F)c(F)cc(F)c2N(C(C)C)C1=O (some centres undefined) .
35 mL/min/kg
